Species on record: Oryctolagus cuniculus
Assay: Ratio of I50 of compound and I50 of theophylline for inhibition of cAMP phosphodiesterase isolated from rabbit lung
value-kind: Ratio

| structure-string | recorded-measurement |
| --- | --- |
| Cc1cc(NN)n2nccc2n1 | 1.5 |
| CCOC(=O)c1cnc2c(Br)cnn2c1NCCO | 1.3 |
| CCOC(=O)c1cnc2ccnn2c1SCC | 4.3 |
| CCOC(=O)c1cnc2ccnn2c1S | 2 |
| CCOC(=O)c1cnc2ccnn2c1N(CC)CC | 1.8 |
| CCCNc1c(OCC)cnc2c(CC)cnn12 | 3.7 |
| CCOc1cnc2c(CC)cnn2c1NCCC(=O)O | 1 |
| CCOC(=O)c1cnc2c(CC)cnn2c1SCC | 13 |
| CCOC(=O)c1cnc2ccnn2c1N | 0.9 |
| CCOC(=O)c1cnc2ccnn2c1NN(C)C | 2 |
| CCCNc1cc(C)nc2c(CC)cnn12 | 9.4 |
| CCOC(=O)c1cnc2c(Br)cnn2c1O | 0.5 |
| CCOC(=O)c1cnc2ccnn2c1Cl | 0.6 |
| CCCNc1c(C(=O)OCC)cnc2c(Br)cnn12 | 6 |
| CCOC(=O)c1cnc2ccnn2c1NCC(=O)O | 1.7 |
| CCOC(=O)c1cnc2c(Br)cnn2c1NCC(=O)O | 2.4 |
| CCCCNc1cc(C)nc2c(Br)cnn12 | 1.5 |
| CCOC(=O)c1cnc2c(CC)cnn2c1NN(C)C | 3.7 |
| CCOC(=O)c1cnc2ccnn2c1NCCO | 1.5 |
| CCOc1cnc2c(CC)cnn2c1NCC(=O)O | 0.7 |
| COC(CNc1cc(C)nc2c(Br)cnn12)OC | 6.8 |
| CCCOc1c(C(=O)OCC)cnc2ccnn12 | 0.6 |
